Numbers sourced from patent US20230048888A1.

- ASSAY NAME: Pharmacokinetics of test compounds in SD rats (15.2; IV and PO, mixed administration)
- Type: in vivo
- CONDITION INFO: male, Sprague-Dawley, rat, plasma, IV, 1 mg/kg
Listing: Cmax of selected compounds
EXPERIMENTAL ENDPOINT: Cmax

>>> recorded_value("Cn1nnc(-c2ccc(CCNc3nc(N)n4nc(-c5ccco5)nc4n3)cc2)n1")
"1280 ng/mL"
>>> recorded_value("COCCNc1ccc(CCNc2nc(N)n3nc(-c4ccco4)nc3n2)cc1")
"139 ng/mL"

----------
- ASSAY NAME: Pharmacokinetics of acetate of Compound 22 in SD rats with single and repeated administration
- Format: in vivo
- CONDITION INFO: both sexes, Sprague-Dawley, rat, plasma, po, 21 mg/kg, Group 2 PO 21 mg/kg single, Overall, read-out: Cmax
EXPERIMENTAL ENDPOINT: Cmax

>>> recorded_value("CC(=O)O.Nc1nc(NCCc2ccc(NC3COC3)cc2)nc2nc(-c3ccco3)nn12 [Acetate of Compound 22]")
"18400 ng/mL"
